# System: GM3
# protocol details: GM3 Elisa assay
# Type: cell-based
# assay context: 48 h, Table 3; B16-FO cells, 2 days incubation; read-out: IC50_uM_Mean
pIC50: −log10 of the molar value.
measured metric: pIC50

>  <molecule>
COc1ccc(OCCC(=O)NC(CN2[C@H](C)CC[C@H]2C)[C@H](O)c2ccc3c(c2)OCCO3)cc1 (stereo partly shown) [Compound 550]

>  <pIC50>
5.00 to 5.52

$$$$
>  <molecule>
COc1ccc(OCCC(=O)N[C@H](CN2CCC[C@H]2C)[C@H](O)c2ccc3c(c2)OCCO3)cc1 [Compound 528]

>  <pIC50>
5.52 to 6.00

$$$$
>  <molecule>
COCOc1ccc(C(=O)CCCC(=O)N[C@H](CN2CC[C@H](O)C2)[C@H](O)c2ccc(OC(C)C)cc2)cc1 [Compound 737]

>  <pIC50>
6.00 to 7.00

$$$$

// switching to the query molecule
Entry Cc1noc(CCCCC(=O)N[C@@H](CC2CCCC2)[C@H](O)c2ccc3c(c2)OCCO3)n1 [Compound 652] — recorded pIC50 = 5.00 to 5.52

----------
# Tested on: GM3
# protocol details: GM3 Elisa assay
# Type: cell-based
# assay context: 48 h, Table 3; B16-FO cells, 2 days incubation; read-out: IC50_uM_Mean
Provide the recorded IC50 for the entries that follow.

>  <molecule>
CCCCCCCCCCCCCCCC(=O)N[C@H](CN(C)Cc1ccccc1)[C@@H](O)c1ccc2c(c1)OCCO2

>  <IC50>
3000 to 10000 nM

$$$$
>  <molecule>
CCCCCCCC(=O)NC(CN1[C@H](C)CC[C@H]1C)[C@H](O)c1ccc2c(c1)OCCO2 (stereo partly shown)

>  <IC50>
3000 to 10000 nM

$$$$
>  <molecule>
COc1ccc(C(=O)CCCCCC(=O)N[C@H](CN2CCC(C)(C)C2)[C@@H](O)c2ccc3c(c2)OCCO3)cc1

>  <IC50>
1000 to 3000 nM

$$$$
>  <molecule>
CCCCCCCC(=O)N[C@H](CN1CCC(C)(C)C1)[C@@H](O)c1ccc2c(c1)OCCO2

>  <IC50>
3000 to 10000 nM

$$$$
>  <molecule>
COc1ccc([C@@H](O)[C@@H](CN2CCCC2)NC(=O)CCCCCC(C)=O)cc1

>  <IC50>
1000 to 3000 nM

$$$$

Record IC50 per entry; entries follow.
1. COc1ccc(OCCC(=O)N[C@H](CN2CCCC2)[C@@H](O)c2ccc3c(c2)OCCO3)cc1
2. CCCCOc1ccc([C@@H](O)[C@@H](CN2CC[C@@H](F)C2)NC(=O)CCCCCCCOC)cc1

Response:
3000 to 10000 nM
100 to 1000 nM

----------
# Tested on: GM3
# protocol details: GM3 Elisa assay
# Assay type: cell-based
# assay context: 48 h, Table 3; B16-FO cells, 2 days incubation; read-out: IC50_uM_Mean
Provide the recorded IC50 for the entries that follow.

Example compounds with recorded IC50:
>  <compound>
CCCNC[C@@H](NC(=O)CCCCCC(=O)c1ccc(OC)cc1)[C@H](O)c1ccc2c(c1)OCCO2

>  <tested system>
GM3

>  <IC50>
100 to 1000 nM

$$$$
>  <compound>
COc1ccc(OCCC(=O)N[C@@H](CN2CCCC2)[C@H](O)c2ccc3c(c2)OCCO3)cc1

>  <tested system>
GM3

>  <IC50>
3000 to 10000 nM

$$$$
>  <compound>
COc1ccc(OCCC(=O)N[C@H](CN2C(C)CCCC2C)[C@@H](O)c2ccc3c(c2)OCCO3)cc1 (stereo partly shown)

>  <tested system>
GM3

>  <IC50>
3000 to 10000 nM

$$$$
>  <compound>
COCCOc1ccc(C(O)[C@@H](CN2CCCC2)NC(=O)CCCCC(=O)c2ccc(OC)cc2)cc1 (stereo partly shown)

>  <tested system>
GM3

>  <IC50>
≤ 100 nM

$$$$

Record IC50 per entry; entries follow.
1. COc1ccc(C(=O)CCCCCC(=O)NC(CN2[C@H](C)CC[C@H]2C)[C@H](O)c2ccc3c(c2)OCCO3)cc1 (stereo partly shown)
2. COc1ccc(C(=O)CCCCCC(=O)N[C@H](CNC(C)C)[C@@H](O)c2ccc3c(c2)OCCO3)cc1
3. COC[C@@H]1CCCN1CC(NC(=O)CCCCCC(=O)c1ccc(OC)cc1)[C@@H](O)c1ccc2c(c1)OCCO2 (stereo partly shown)

Response:
["1000 to 3000 nM", "100 to 1000 nM", "100 to 1000 nM"]
